For each of the compounds below, state its log10(koff).
molecular target: Prolyl endopeptidase FAP (Homo sapiens); assay: hFAP Binding Assay
Sequence (Q12884 whole entry): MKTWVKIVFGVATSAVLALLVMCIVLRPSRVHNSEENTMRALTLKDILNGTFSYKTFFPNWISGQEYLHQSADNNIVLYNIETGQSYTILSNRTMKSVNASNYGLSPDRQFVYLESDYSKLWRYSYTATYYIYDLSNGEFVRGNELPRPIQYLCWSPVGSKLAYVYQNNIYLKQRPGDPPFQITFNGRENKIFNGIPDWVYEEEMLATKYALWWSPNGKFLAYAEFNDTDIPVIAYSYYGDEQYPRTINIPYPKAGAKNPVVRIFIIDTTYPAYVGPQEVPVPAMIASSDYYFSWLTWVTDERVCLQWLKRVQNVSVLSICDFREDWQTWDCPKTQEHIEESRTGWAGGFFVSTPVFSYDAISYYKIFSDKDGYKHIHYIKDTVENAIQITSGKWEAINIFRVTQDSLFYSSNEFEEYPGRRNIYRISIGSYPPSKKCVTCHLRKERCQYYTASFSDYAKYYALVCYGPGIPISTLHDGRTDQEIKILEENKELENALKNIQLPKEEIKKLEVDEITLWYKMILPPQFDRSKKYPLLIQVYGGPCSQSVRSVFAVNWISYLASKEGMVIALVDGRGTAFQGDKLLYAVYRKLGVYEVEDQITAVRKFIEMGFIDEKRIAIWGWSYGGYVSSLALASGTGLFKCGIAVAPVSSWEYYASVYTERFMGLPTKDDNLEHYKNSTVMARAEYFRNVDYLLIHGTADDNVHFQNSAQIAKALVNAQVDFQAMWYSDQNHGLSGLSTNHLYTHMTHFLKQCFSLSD
Scale: log10; quantity: koff; unit before log: s⁻¹

With Prolyl endopeptidase FAP (Homo sapiens) as the test system, provide measured log10(koff) for this compound: N#C[C@@H]1CSCN1C(=O)CNC(=O)c1ccnc2ccc(-n3ccc(-c4ccccc4)c3)cc12 [US20230312550, Example 218] -3.49

With Prolyl endopeptidase FAP (Homo sapiens) as the test system, provide measured log10(koff) for this compound: N#C[C@@H]1CSCN1C(=O)CNC(=O)c1ccnc2ccc(N3CCC4(CC3)COC4)cc12 [US20230312550, Example 229] -4.59

With Prolyl endopeptidase FAP (Homo sapiens) as the test system, provide measured log10(koff) for this compound: COC1(C)CCN(c2ccc3nccc(C(=O)NCC(=O)N4CSC[C@H]4C#N)c3c2)CC1 [US20230312550, Example 42] -4.27

With Prolyl endopeptidase FAP (Homo sapiens) as the test system, provide measured log10(koff) for this compound: N#C[C@@H]1CSCN1C(=O)CNC(=O)c1ccnc2ccc(N3CCCC4(CC4)C3)cc12 [US20230312550, Example 46] -4.21

With Prolyl endopeptidase FAP (Homo sapiens) as the test system, provide measured log10(koff) for this compound: N#C[C@@H]1CSCN1C(=O)CNC(=O)c1ccnc2ccc(N3CCC34CCC4)cc12 [US20230312550, Example 19] -4.18

With Prolyl endopeptidase FAP (Homo sapiens) as the test system, provide measured log10(koff) for this compound: CC1(C)CN(c2ccc3nccc(C(=O)NCC(=O)N4CSC[C@H]4C#N)c3c2)C(=O)O1 [US20230312550, Example 13] -4.12

With Prolyl endopeptidase FAP (Homo sapiens) as the test system, provide measured log10(koff) for this compound: N#C[C@@H]1CSCN1C(=O)CNC(=O)c1ccnc2ccc(N3CC(F)(c4ccccc4)C3)cc12 [US20230312550, Example 182] -4.38

With Prolyl endopeptidase FAP (Homo sapiens) as the test system, provide measured log10(koff) for this compound: N#C[C@@H]1CSCN1C(=O)CNC(=O)c1ccnc2ccc(N3CCC[C@@H]3C3CC3)cc12 [US20230312550, Example 199] -3.59

With Prolyl endopeptidase FAP (Homo sapiens) as the test system, provide measured log10(koff) for this compound: N#C[C@@H]1CSCN1C(=O)CNC(=O)c1ccnc2ccc(N3CC4(COC4)C3)cc12 [US20230312550, Example 166] -4.31

With Prolyl endopeptidase FAP (Homo sapiens) as the test system, provide measured log10(koff) for this compound: CO[C@H]1CCCN(c2ccc3nccc(C(=O)NCC(=O)N4CSC[C@H]4C#N)c3c2)C1 [US20230312550, Example 41] -4.19

With Prolyl endopeptidase FAP (Homo sapiens) as the test system, provide measured log10(koff) for this compound: C[C@H]1COC[C@H](C)N1c1ccc2nccc(C(=O)NCC(=O)N3CSC[C@H]3C#N)c2c1 [US20230312550, Example 103] -4.00

With Prolyl endopeptidase FAP (Homo sapiens) as the test system, provide measured log10(koff) for this compound: CCC1(OC)CCN(c2ccc3nccc(C(=O)NCC(=O)N4CSC[C@H]4C#N)c3c2)CC1 [US20230312550, Example 191] -4.48

With Prolyl endopeptidase FAP (Homo sapiens) as the test system, provide measured log10(koff) for this compound: N#C[C@@H]1CSCN1C(=O)CNC(=O)c1ccnc2ccc(N3CCC[C@H]3C3CC3)cc12 [US20230312550, Example 200] -3.64

With Prolyl endopeptidase FAP (Homo sapiens) as the test system, provide measured log10(koff) for this compound: N#C[C@@H]1CSCN1C(=O)CNC(=O)c1ccnc2ccc(N3CC4CCC(C3)O4)cc12 [US20230312550, Example 79] -3.92

With Prolyl endopeptidase FAP (Homo sapiens) as the test system, provide measured log10(koff) for this compound: N#C[C@@H]1CSCN1C(=O)CNC(=O)c1ccnc2ccc(N3C[C@@H](F)[C@H](F)C3)cc12 [US20230312550, Example 214] -4.04

With Prolyl endopeptidase FAP (Homo sapiens) as the test system, provide measured log10(koff) for this compound: C[C@@H]1CN(c2ccc3nccc(C(=O)NCC(=O)N4CSC[C@H]4C#N)c3c2)C[C@H](C)[C@@H]1O [US20230312550, Example 7] -4.12

With Prolyl endopeptidase FAP (Homo sapiens) as the test system, provide measured log10(koff) for this compound: COC[C@@H]1CCCN1c1ccc2nccc(C(=O)NCC(=O)N3CSC[C@H]3C#N)c2c1 [US20230312550, Example 212] -3.47

With Prolyl endopeptidase FAP (Homo sapiens) as the test system, provide measured log10(koff) for this compound: N#C[C@@H]1CSCN1C(=O)CNC(=O)c1ccnc2ccc(-c3ccnc(F)c3)cc12 [US20230312550, Example 124] -3.55

With Prolyl endopeptidase FAP (Homo sapiens) as the test system, provide measured log10(koff) for this compound: CC1(C(F)F)CN(c2ccc3nccc(C(=O)NCC(=O)N4CSC[C@H]4C#N)c3c2)C1 [US20230312550, Example 135] -4.64

With Prolyl endopeptidase FAP (Homo sapiens) as the test system, provide measured log10(koff) for this compound: CC1CC2(C1)CN(c1ccc3nccc(C(=O)NCC(=O)N4CSC[C@H]4C#N)c3c1)C2 [US20230312550, Example 149] -4.41

With Prolyl endopeptidase FAP (Homo sapiens) as the test system, provide measured log10(koff) for this compound: CCC1(O)CCN(c2ccc3nccc(C(=O)NCC(=O)N4CSC[C@H]4C#N)c3c2)CC1 [US20230312550, Example 189] -4.29

With Prolyl endopeptidase FAP (Homo sapiens) as the test system, provide measured log10(koff) for this compound: N#C[C@@H]1CSCN1C(=O)CNC(=O)c1ccnc2ccc(N3CCCC[C@@H](F)C3)cc12 [US20230312550, Example 59] -3.72

With Prolyl endopeptidase FAP (Homo sapiens) as the test system, provide measured log10(koff) for this compound: N#C[C@@H]1CSCN1C(=O)CNC(=O)c1ccnc2ccc(N3CC(F)(C(F)(F)F)C3)cc12 [US20230312550, Example 143] -4.24

With Prolyl endopeptidase FAP (Homo sapiens) as the test system, provide measured log10(koff) for this compound: N#C[C@@H]1CSCN1C(=O)CNC(=O)c1ccnc2ccc(N3CC(CCF)C3)cc12 [US20230312550, Example 146] -3.77

With Prolyl endopeptidase FAP (Homo sapiens) as the test system, provide measured log10(koff) for this compound: CC1(C)COC12CN(c1ccc3nccc(C(=O)NCC(=O)N4CSC[C@H]4C#N)c3c1)C2 [US20230312550, Example 18] -4.23

With Prolyl endopeptidase FAP (Homo sapiens) as the test system, provide measured log10(koff) for this compound: N#C[C@@H]1CSCN1C(=O)CNC(=O)c1ccnc2ccc(N3CCOC[C@@H]3C(F)(F)F)cc12 [US20230312550, Example 85] -3.96

With Prolyl endopeptidase FAP (Homo sapiens) as the test system, provide measured log10(koff) for this compound: C[C@@H]1CCCN1c1ccc2nccc(C(=O)NCC(=O)N3CSC[C@H]3C#N)c2c1 [US20230312550, Example 211] -3.70
